# Assay summary: in vitro CEDST spectra of candidate contrast agents (proton chemical exchange with water), 7T
# Experimental parameters: sugars 250 mM, —OH protons, single pH 7.0, 37° C., 20 mM phosphate buffer
ppm (relative to the resonant frequency of water) reference
Recorded metric: ppm (relative to the resonant frequency of water) (ppm)

- Cpd smiles: "O=C[C@H](O)[C@@H](O)[C@@H](O)[C@H](O)CO"
  Quantity unit: "ppm"
  Result: 1.167
- Cpd smiles: "OC[C@@H](O)[C@@H](O)[C@H](O)[C@@H](O)CO"
  Quantity unit: "ppm"
  Result: 1.000
- Cpd smiles: "OC[C@@H](O)[C@@H](O)[C@H](O)[C@H](O)CO"
  Quantity unit: "ppm"
  Result: 1.000
- Cpd smiles: "O=C(CO)[C@@H](O)[C@H](O)[C@H](O)CO"
  Quantity unit: "ppm"
  Result: 1.333
- Cpd smiles: "OC[C@H]1O[C@@](CO)(O[C@H]2O[C@H](CO)[C@@H](O)[C@H](O)[C@H]2O)[C@@H](O)[C@@H]1O"
  Quantity unit: "ppm"
  Result: 1.333

* * *

# Assay summary: pKa of the proton exchange site

- Cpd smiles: "O=C1CC(=O)NC(=O)N1"
  pKa: 12
- Cpd smiles: "CCC1(CC)C(=O)NC(=O)NC1=O"
  pKa: 7

* * *

Reported Mo − Ms (%) is given for each of the following molecules.
# Assay summary: in vitro CEDST spectra of candidate contrast agents (proton chemical exchange with water), 7T
# Experimental parameters: 62.5 mM, 37° C., 20 mM phosphate buffer, 10.88 × 10^−7T; at given ppm and pH

- Molecule: "O=C1CC(=O)NC(=O)N1 [Barbituric Acid]"
  Mo − Ms (%): 32.5
- Molecule: "O=C(O)C1CCCCN1 (stereo not drawn) [Pipecolinic Acid]"
  Mo − Ms (%): 19.3
- Molecule: "O=C1CC(=O)NC(=S)N1 [2-Thio-Barbituric Acid]"
  Mo − Ms (%): 35.3
- Molecule: "O=C1CCNC(=O)N1 [5,6 Dihydrouracil]"
  Mo − Ms (%): 22.2
- Molecule: "CCC1(CC)C(=O)NC(=O)NC1=O [Barbital (5,5-Diethyl-Barbituric Acid), 5,5-Diethyl-Barbituric Acid]"
  Mo − Ms (%): 14.2
- Molecule: "O=C(O)C1CCN1 (stereo not drawn) [Azetidine-2-Carboxylic Acid]"
  Mo − Ms (%): 25.5

* * *

# Assay summary: in vitro CEDST spectra of candidate contrast agents (proton chemical exchange with water), 7T
# Experimental parameters: 62.5 mM, 37° C., 20 mM phosphate buffer; exchange site
Item-by-item account of ppm (relative to the resonant frequency of water)
Recorded metric: ppm (relative to the resonant frequency of water) (ppm)

- Compound: "O=C1CC(=O)NC(=O)N1"
  Result: 5.000
- Compound: "O=C1CC(=O)NC(=S)N1"
  Result: 6.333
- Compound: "O=C(O)C1CCCCN1 (centres unmarked)"
  Result: 3.33
- Compound: "CCC1(CC)C(=O)NC(=O)NC1=O"
  Result: 5.000
- Compound: "O=C(O)C1CCN1 (centres unmarked)"
  Result: 3.50

* * *

# Assay summary: in vitro CEDST spectra of candidate contrast agents (proton chemical exchange with water), 7T
# Experimental parameters: sugars 250 mM, —OH protons, single pH 7.0, 37° C., 20 mM phosphate buffer, saturation power 10.88 × 10^−7T

- Cpd smiles: "O=C[C@H](O)[C@@H](O)[C@@H](O)[C@H](O)CO"
  Mo − Ms (%): 10.3
- Cpd smiles: "OC[C@H]1O[C@@](CO)(O[C@H]2O[C@H](CO)[C@@H](O)[C@H](O)[C@H]2O)[C@@H](O)[C@@H]1O"
  Mo − Ms (%): 10.2
- Cpd smiles: "OC[C@@H](O)[C@@H](O)[C@H](O)[C@@H](O)CO"
  Mo − Ms (%): 7.3
- Cpd smiles: "OC[C@@H](O)[C@@H](O)[C@H](O)[C@H](O)CO"
  Mo − Ms (%): 9.0
- Cpd smiles: "O=C(CO)[C@@H](O)[C@H](O)[C@H](O)CO"
  Mo − Ms (%): 9.3
